Recorded Tmax for the following compounds
assay: In vivo mouse pharmacokinetics, paired oral co-dosing, plasma and brain; parameters: species or system mice; settings: brain, 10 mg/kg po co-dosed

Below: 2 compounds and their reported Tmax.
Compound | Tmax
COC[C@@]1(O)CC[C@@]2(C)[C@@H](CC[C@@H]3[C@@H]2CC[C@]2(C)[C@@H](C(=O)Cn4ccnc4)CC[C@@H]32)C1 [Example 1] | 1 h
[2H]C(C(=O)[C@@]1([2H])CC[C@H]2[C@@H]3CC[C@H]4C[C@@](O)(COC([2H])([2H])[2H])CC[C@]4(C)[C@H]3CC[C@@]21C)n1ccnc1 (stereo partly drawn) [Example 5] | 1 h

Next:
Q: Record request: Tmax value, item [2H]c1nc([2H])n(C([2H])C(=O)[C@@]2([2H])CC[C@H]3[C@@H]4CC[C@H]5C[C@@](O)(COC([2H])([2H])[2H])CC[C@]5(C)[C@H]4CC[C@@]32C)c1[2H] (stereo partly drawn) [Example 6]
Ans: 1 h

====

assay: In vivo mouse pharmacokinetics, paired oral co-dosing, plasma and brain; parameters: species or system mice; settings: brain/plasma, 10 mg/kg po co-dosed, read-out: B/P AUC Ratio
Measured quantity: Kp
Lab note: record the figure alone, no unit after it.

Example results:
Molecule | Measured quantity | Result value
[2H]C(C(=O)[C@@]1([2H])CC[C@H]2[C@@H]3CC[C@H]4C[C@@](O)(COC([2H])([2H])[2H])CC[C@]4(C)[C@H]3CC[C@@]21C)n1ccnc1 (stereo partly drawn) [Example 5] | Kp | 2.6
COC[C@@]1(O)CC[C@@]2(C)[C@@H](CC[C@@H]3[C@@H]2CC[C@]2(C)[C@@H](C(=O)Cn4ccnc4)CC[C@@H]32)C1 [Example 1] | Kp | 1.2
[2H]c1nc([2H])n(CC(=O)[C@H]2CC[C@H]3[C@@H]4CC[C@H]5C[C@@](O)(COC)CC[C@]5(C)[C@H]4CC[C@]23C)c1[2H] [Example 2] | Kp | 2.8

Q: Entry [2H]c1nc([2H])n(C([2H])C(=O)[C@@]2([2H])CC[C@H]3[C@@H]4CC[C@H]5C[C@@](O)(COC([2H])([2H])[2H])CC[C@]5(C)[C@H]4CC[C@@]32C)c1[2H] (stereo partly drawn) [Example 6] has what Kp?
Ans: 2.7

Q: Same lookup for [2H]c1nc([2H])n(CC(=O)[C@H]2CC[C@H]3[C@@H]4CC[C@H]5C[C@@](O)(COC([2H])([2H])[2H])CC[C@]5(C)[C@H]4CC[C@]23C)c1[2H] [Example 4] , please.
Ans: 2.7

Q: Another molecule: [2H]C([2H])([2H])OC[C@@]1(O)CC[C@@]2(C)[C@@H](CC[C@@H]3[C@@H]2CC[C@]2(C)[C@@H](C(=O)Cn4ccnc4)CC[C@@H]32)C1 [Example 3]
Ans: 1.2

====

Test: In vivo mouse pharmacokinetics, paired oral co-dosing, plasma and brain
Parameters: species or system mice
Details: brain, 10 mg/kg po co-dosed, 0.25 hr, read-out: Brain concentration
Description: In a first study, the compounds of Examples 2 to 6 are compared to the Compound of Formula A (Example 1) using standard procedures in mice. In each test, two compounds are co-dosed in a single animal and the relative pharmacokinetics in plasma and brain is determined. […] After single dose oral administration of the test compounds together, plasma and brain levels are measured at 0.25, 0.5, 1, 2, 4, and 6 hours post-dosing. […]
Measured quantity: concentration at 0.25 hr (ng/g)
Express it in ng/g; write the number only.

Past entries and their recorded results:
Molecule | Measured quantity | Result value
[2H]C(C(=O)[C@@]1([2H])CC[C@H]2[C@@H]3CC[C@H]4C[C@@](O)(COC([2H])([2H])[2H])CC[C@]4(C)[C@H]3CC[C@@]21C)n1ccnc1 (stereo partly drawn) [Example 5] | concentration at 0.25 hr | 3450
COC[C@@]1(O)CC[C@@]2(C)[C@@H](CC[C@@H]3[C@@H]2CC[C@]2(C)[C@@H](C(=O)Cn4ccnc4)CC[C@@H]32)C1 [Example 1] | concentration at 0.25 hr | 2280

Now look at this one.
Q: May I ask what concentration at 0.25 hr has been recorded for [2H]c1nc([2H])n(C([2H])C(=O)[C@@]2([2H])CC[C@H]3[C@@H]4CC[C@H]5C[C@@](O)(COC([2H])([2H])[2H])CC[C@]5(C)[C@H]4CC[C@@]32C)c1[2H] (stereo partly drawn) [Example 6] ?
Ans: 3300

====

# key: entry, value: concentration at 0.25 hr
assay: In vivo mouse pharmacokinetics, paired oral co-dosing, plasma and brain; parameters: species or system mice; conditions: plasma, 10 mg/kg po co-dosed, 0.25 hr, read-out: Plasma concentration
Quote the value and follow it with the unit of measurement.

Compound | concentration at 0.25 hr
[2H]c1nc([2H])n(C([2H])C(=O)[C@@]2([2H])CC[C@H]3[C@@H]4CC[C@H]5C[C@@](O)(COC([2H])([2H])[2H])CC[C@]5(C)[C@H]4CC[C@@]32C)c1[2H] (stereo partly drawn) | 1410 ng/mL

Q: Would you kindly share the measured concentration at 0.25 hr for [2H]c1nc([2H])n(CC(=O)[C@H]2CC[C@H]3[C@@H]4CC[C@H]5C[C@@](O)(COC)CC[C@]5(C)[C@H]4CC[C@]23C)c1[2H] ?
Ans: 1180 ng/mL

Q: Now the same for [2H]c1nc([2H])n(CC(=O)[C@H]2CC[C@H]3[C@@H]4CC[C@H]5C[C@@](O)(COC([2H])([2H])[2H])CC[C@]5(C)[C@H]4CC[C@]23C)c1[2H]
Ans: 896 ng/mL

====

# percentage of initial concentration per record follows
test system: human hepatocyte; test: In vitro human hepatocyte stability assay; format: in vitro ADME; settings: human hepatocytes, 0.5 hr
Quick note: give the figure in %, leave out the unit.

As a guide, the following entries are already answered.
Molecule | percentage of initial concentration (%)
[2H]c1nc([2H])n(CC(=O)[C@H]2CC[C@H]3[C@@H]4CC[C@H]5C[C@@](O)(COC)CC[C@]5(C)[C@H]4CC[C@]23C)c1[2H] | 105
[2H]C(C(=O)[C@@]1([2H])CC[C@H]2[C@@H]3CC[C@H]4C[C@@](O)(COC([2H])([2H])[2H])CC[C@]4(C)[C@H]3CC[C@@]21C)n1ccnc1 (stereo partly shown) | 83
COC[C@@]1(O)CC[C@@]2(C)[C@@H](CC[C@@H]3[C@@H]2CC[C@]2(C)[C@@H](C(=O)Cn4ccnc4)CC[C@@H]32)C1 | 94

Next molecule, please.
Q: Item under review: [2H]c1nc([2H])n(C([2H])C(=O)[C@@]2([2H])CC[C@H]3[C@@H]4CC[C@H]5C[C@@](O)(COC([2H])([2H])[2H])CC[C@]5(C)[C@H]4CC[C@@]32C)c1[2H] (stereo partly shown) . Reported percentage of initial concentration?
Ans: 83

====

assay: In vivo mouse pharmacokinetics, paired oral co-dosing, plasma and brain; set-up: species or system mice; conditions: plasma, 10 mg/kg po co-dosed, 4 hr, read-out: Plasma concentration
Measured quantity: concentration at 4 hr (ng/mL)
The reply should contain only the number, in ng/mL.

Compound | Unit tag | concentration at 4 hr
[2H]c1nc([2H])n(CC(=O)[C@H]2CC[C@H]3[C@@H]4CC[C@H]5C[C@@](O)(COC([2H])([2H])[2H])CC[C@]5(C)[C@H]4CC[C@]23C)c1[2H] [Example 4] | ng/mL | 1600
COC[C@@]1(O)CC[C@@]2(C)[C@@H](CC[C@@H]3[C@@H]2CC[C@]2(C)[C@@H](C(=O)Cn4ccnc4)CC[C@@H]32)C1 [Example 1] | ng/mL | 1840
[2H]C(C(=O)[C@@]1([2H])CC[C@H]2[C@@H]3CC[C@H]4C[C@@](O)(COC([2H])([2H])[2H])CC[C@]4(C)[C@H]3CC[C@@]21C)n1ccnc1 (stereo partly drawn) [Example 5] | ng/mL | 1340
[2H]c1nc([2H])n(C([2H])C(=O)[C@@]2([2H])CC[C@H]3[C@@H]4CC[C@H]5C[C@@](O)(COC([2H])([2H])[2H])CC[C@]5(C)[C@H]4CC[C@@]32C)c1[2H] (stereo partly drawn) [Example 6] | ng/mL | 1220
[2H]C([2H])([2H])OC[C@@]1(O)CC[C@@]2(C)[C@@H](CC[C@@H]3[C@@H]2CC[C@]2(C)[C@@H](C(=O)Cn4ccnc4)CC[C@@H]32)C1 [Example 3] | ng/mL | 1810

Turning now to a further compound:
Q: Entry [2H]c1nc([2H])n(CC(=O)[C@H]2CC[C@H]3[C@@H]4CC[C@H]5C[C@@](O)(COC)CC[C@]5(C)[C@H]4CC[C@]23C)c1[2H] [Example 2] has what concentration at 4 hr?
Ans: 1760

From: patent US12325726B2
